experiment: Inhibitory activity against varicella zoster virus (VZV) protease
quantity-kind: IC50 (nM)
Unit nM implied. Number only.

response.value for CCOc1ccc(C(=O)/C=C/C(=O)N[C@@H](C)c2nc3scc(C)c3c(=O)o2)cc1 (field: IC50) = 1600

* * *

Reported IC50 values follow for various compounds
test: Inhibitory activity against varicella zoster virus (VZV) protease
Could you kindly put the unit after your number?

Consider the worked cases shown below.
substance-smiles	value
COc1cccc(C(=O)/C=C/C(=O)N[C@@H](C)c2nc3scc(C)c3c(=O)o2)c1	340 nM
Cc1csc2nc([C@H](C)NC(=O)CCC(=O)c3cccs3)oc(=O)c12	820 nM
CC(=O)C=CC(=O)N[C@@H](C)c1nc2scc(C)c2c(=O)o1	1360 nM
Cc1csc2nc([C@H](C)NC(=O)/C=C/C(=O)c3cccs3)oc(=O)c12	650 nM
Cc1csc2nc([C@H](C)NC(=O)/C=C/C(=O)c3cccc(C#N)c3)oc(=O)c12	410 nM

Now take the following compound into account.
response.value for Cc1csc2nc([C@H](C)NC(=O)/C=C/C(=O)c3ccccc3[N+](=O)[O-])oc(=O)c12 (field: IC50) = 840 nM
